All figures here come from BindingDB's records for doi:10.1016/j.bmc.2010.04.050.

target or system: Low molecular weight phosphotyrosine protein phosphatase ACP1 (Homo sapiens)
property measured: IC50 (µM)
Only the number, expressed in µM, is required.

Summary for this compound, O=NC(Cc1ccnc2ccccc12)C(=O)O (stereo unspecified) : IC50 is 72
